System: S462
TEST PROTOCOL: drug sensitivity score (DSS, CellTiter-Glo viability, 72 h) (DSS (dimensionless)); higher = more sensitive; extreme values may be limits of the assay
Below, each of the compounds is paired with its reported drug sensitivity score value.

COMPOUND	drug sensitivity score
CCn1c(-c2nonc2N)nc2cnc(Oc3cccc(NC(=O)c4ccc(OCCN5CCOCC5)cc4)c3)cc21 (max concentration tested 10000 nM)	3.9
O=c1[nH]c(=O)n([C@H]2C[C@H](O)[C@@H](CO)O2)cc1F [Floxuridine] (max concentration tested 10000 nM)	22.4
O=C(/C=C/c1cccnc1)NCCCCC1CCN(C(=O)c2ccccc2)CC1 [Daporinad] (max concentration tested 1000 nM)	28.6
COc1cc2c(N3CCN(C(=O)Nc4ccc(OC(C)C)cc4)CC3)ncnc2cc1OCCCN1CCCCC1 [Tandutinib] (max concentration tested 1000 nM)	0
CC(C)c1cc(-c2n[nH]c(=O)n2-c2ccc3c(ccn3C)c2)c(O)cc1O [Ganetespib] (max concentration tested 1000 nM)	19.2
CCCS(=O)(=O)Nc1ccc(F)c(C(=O)c2c[nH]c3ncc(-c4ccc(Cl)cc4)cc23)c1F [Vemurafenib] (max concentration tested 10000 nM)	0
N#CCNC(=O)c1ccc(-c2ccnc(Nc3ccc(N4CCOCC4)cc3)n2)cc1 [Momelotinib] (max concentration tested 10000 nM)	4.7
Cc1sc2c(c1C)C(c1ccc(Cl)cc1)=N[C@@H](CC(=O)OC(C)(C)C)c1nnc(C)n1-2 [(+)JQ1] (max concentration tested 10000 nM)	11.3
CC(C)(C)Cn1c(N)nc2ccc(-c3[nH]c(C(C)(C)C)nc3-c3ccc(F)cc3)nc21 [Ralimetinib] (max concentration tested 10000 nM)	0.51
COc1c(C)cnc(Cn2cnc3c(Cl)nc(N)nc32)c1C [BIIB021] (max concentration tested 10000 nM)	20.1
CCC1=C[C@@H]2CN(C1)Cc1c([nH]c3ccccc13)[C@@](C(=O)OC)(c1cc3c(cc1OC)N(C)[C@H]1[C@@](O)(C(=O)OC)[C@H](OC(C)=O)[C@]4(CC)C=CCN5CC[C@]31[C@@H]54)C2 [Vinorelbine] (max concentration tested 10000 nM)	30.2
Nc1ncnc2c1nc(N)n2[C@@H]1O[C@H](CO)[C@@H](O)[C@H]1O [8-amino-adenosine] (max concentration tested 50000 nM)	20.2
